Data provenance is PubChem BioAssay (NCI).

Assign growth to each entry below.
# Tested on: U251 CNS
# MEASUREMENT_DESCRIPTION: NCI-60 one-dose screen, 48 h (100 = growth as untreated, 0 = no growth, -100 = all killed)
# ASSAY_CONDITIONS: 10 µM unless noted
Compounds without any hit were thinned out: in the full panel of roughly 83,000, 20% have a hit.
# output: bare number, implied unit %

Query O=C(NCCCCCCNC(=O)OCc1ccc2c(Cl)cc(Cl)c(O)c2n1)OCc1ccc2c(Cl)cc(Cl)c(O)c2n1 yields growth of -92.2

Query Cc1nc2sc(C(=O)Nc3ccccn3)c(N)c2cc1C(C)O (centres undefined) yields growth of 48.8

Query CNC(=O)c1cc(Oc2ccc3c(c2)sc2nc(-c4ccc(NC(=O)[C@@H](NC(=O)OC)C(C)C)cc4)cn23)ccn1 yields growth of 81.6

Query Cc1nc(N/N=C/c2cn(-c3ccccc3)nc2-c2cc3ccccc3oc2=O)sc1N=Nc1ccccc1 yields growth of 93.1

Query COc1ccc(C=Nc2c(C(=O)Nc3cccc(Cl)c3C)sc3nc(C)c(C(=O)/C=C/c4ccc(OC)cc4)cc23)cc1 yields growth of 23.6

Query CC(=O)c1c(Nc2cccc(F)c2)[nH]c2c(Cl)cc(Cl)c(Cl)c2c1=O yields growth of 3.22

Query O=[N+]([O-])c1ccccc1Sc1ccccc1[N+](=O)[O-] yields growth of 90.6

Query COc1cc(O)c2c(=O)c3c(CC=C(C)C)cc(OC)c(O)c3oc2c1 yields growth of 9.71

Query Cn1cc(-c2csc(-c3cn(CCCN4CCOCC4)c4ccc(F)cc34)n2)c2cccnc21 yields growth of 51.1
